details: in water, 293.15 K
measurement label: solubility (mole fraction)

Ask: Using known records, supply solubility (mole fraction) for CCn1c2ccccc2c2cc(-n3nncc3-c3ccccc3)ccc21
Reply: 1.46e-06

----------
settings: in acetonitrile, 293.15 K
measurement label: solubility (mole fraction)

Ask: Entry CCn1c2ccccc2c2cc(-n3nncc3-c3ccccc3)ccc21 needs its solubility (mole fraction) filled in; supply it.
Reply: 0.00336

----------
conditions: in acetonitrile, 313.15 K
measurement label: solubility (mole fraction)
Number, no unit, nothing else.

Ask: Return solubility (mole fraction) for the following compound: CCn1c2ccccc2c2cc(-n3nncc3-c3ccccc3)ccc21
Reply: 0.00733

----------
settings: in isopropanol, 303.15 K
measurement label: solubility (mole fraction)
Respond using a number only.

Ask: Consider the compound CCn1c2ccccc2c2cc(-n3nncc3-c3ccccc3)ccc21 and give its recorded solubility (mole fraction).
Reply: 0.000825

----------
conditions: in acetonitrile, 298.15 K
measurement label: solubility (mole fraction)
Answer as a number with no unit attached.

Ask: Answer with the recorded solubility (mole fraction) for the compound listed here: CCn1c2ccccc2c2cc(-n3nncc3-c3ccccc3)ccc21
Reply: 0.00412

----------
details: in n-propanol, 278.15 K
measurement label: solubility (mole fraction)
Reply with just the number.

Ask: Recall and state the measured solubility (mole fraction) for CCn1c2ccccc2c2cc(-n3nncc3-c3ccccc3)ccc21 .
Reply: 0.000523

----------
conditions: in n-propanol, 283.15 K
measurement label: solubility (mole fraction)
No unit in the answer, please; the number alone is enough.

Ask: // Input: CCn1c2ccccc2c2cc(-n3nncc3-c3ccccc3)ccc21 . Output its solubility (mole fraction) only.
Reply: 0.000671

----------
conditions: in isopropanol, 293.15 K
measurement label: solubility (mole fraction)
// no unit, no text: just the number

Ask: For the molecule CCn1c2ccccc2c2cc(-n3nncc3-c3ccccc3)ccc21 , give its measured solubility (mole fraction) value.
Reply: 0.000491

----------
details: in isopropanol, 318.15 K
measurement label: solubility (mole fraction)
Provide a numeric answer; units are not to be included.

Ask: Return the recorded solubility (mole fraction) value; entry: CCn1c2ccccc2c2cc(-n3nncc3-c3ccccc3)ccc21
Reply: 0.00174

----------
settings: in water, 283.15 K
measurement label: solubility (mole fraction)
Just the number.

Ask: Report solubility (mole fraction), nothing else, for this molecule: CCn1c2ccccc2c2cc(-n3nncc3-c3ccccc3)ccc21
Reply: 7.99e-07

----------
settings: in water, 318.15 K
measurement label: solubility (mole fraction)
Respond with the number and no other words.

Ask: Return solubility (mole fraction) (reported value) for this compound: CCn1c2ccccc2c2cc(-n3nncc3-c3ccccc3)ccc21
Reply: 5.81e-06

----------
settings: in ethanol, 293.15 K
measurement label: solubility (mole fraction)

Ask: Give solubility (mole fraction) for the following molecule: CCn1c2ccccc2c2cc(-n3nncc3-c3ccccc3)ccc21
Reply: 0.00084

----------
conditions: in n-propanol, 288.15 K
measurement label: solubility (mole fraction)

Ask: Using the record for CCn1c2ccccc2c2cc(-n3nncc3-c3ccccc3)ccc21 , state its measured solubility (mole fraction).
Reply: 0.000837

----------
settings: in acetonitrile, 308.15 K
measurement label: solubility (mole fraction)
Kindly provide the number alone.

Ask: Name the recorded solubility (mole fraction) of the item CCn1c2ccccc2c2cc(-n3nncc3-c3ccccc3)ccc21 in your answer.
Reply: 0.00609

----------
settings: in acetonitrile, 283.15 K
measurement label: solubility (mole fraction)
Lab note: jot the number down without any unit.

Ask: Input CCn1c2ccccc2c2cc(-n3nncc3-c3ccccc3)ccc21 , output reported solubility (mole fraction).
Reply: 0.0022

----------
settings: in n-propanol, 318.15 K
measurement label: solubility (mole fraction)
Kindly provide the number alone.

Ask: Indicate the recorded solubility (mole fraction) value for this molecule: CCn1c2ccccc2c2cc(-n3nncc3-c3ccccc3)ccc21
Reply: 0.00297

----------
settings: in water, 308.15 K
measurement label: solubility (mole fraction)
API note: the answer field is a bare number with no unit suffix.

Ask: Quote solubility (mole fraction) reported for CCn1c2ccccc2c2cc(-n3nncc3-c3ccccc3)ccc21 please.
Reply: 3.4e-06

----------
conditions: in isopropanol, 313.15 K
measurement label: solubility (mole fraction)
Please reply with the value in numeric form only.

Ask: Provide measured solubility (mole fraction) value, entry: CCn1c2ccccc2c2cc(-n3nncc3-c3ccccc3)ccc21
Reply: 0.00135

----------
conditions: in water, 323.15 K
measurement label: solubility (mole fraction)
No unit in the answer, only the number.

Ask: Write down solubility (mole fraction) measured for item CCn1c2ccccc2c2cc(-n3nncc3-c3ccccc3)ccc21
Reply: 7.48e-06

----------
conditions: in ethanol, 283.15 K
measurement label: solubility (mole fraction)
Field format: numeric only.

Ask: State its solubility (mole fraction): CCn1c2ccccc2c2cc(-n3nncc3-c3ccccc3)ccc21
Reply: 0.000546

----------
details: in isopropanol, 288.15 K
measurement label: solubility (mole fraction)
Answer using only a numeral; do not append any unit.

Ask: Return the recorded solubility (mole fraction) value; entry: CCn1c2ccccc2c2cc(-n3nncc3-c3ccccc3)ccc21
Reply: 0.000371

----------
conditions: in isopropanol, 283.15 K
measurement label: solubility (mole fraction)
Enter the number alone.

Ask: State, in one line, measured solubility (mole fraction) of CCn1c2ccccc2c2cc(-n3nncc3-c3ccccc3)ccc21
Reply: 0.000278

----------
details: in n-propanol, 303.15 K
measurement label: solubility (mole fraction)
Please reply with the number alone, leaving off any unit.

Ask: Read the entry CCn1c2ccccc2c2cc(-n3nncc3-c3ccccc3)ccc21 and write its reported solubility (mole fraction).
Reply: 0.00161

----------
conditions: in ethanol, 323.15 K
measurement label: solubility (mole fraction)
Please state the value as a number alone, without comment.

Ask: Tell me solubility (mole fraction) reported for CCn1c2ccccc2c2cc(-n3nncc3-c3ccccc3)ccc21
Reply: 0.00262

----------
details: in water, 303.15 K
measurement label: solubility (mole fraction)
I'd appreciate a reply containing only the number, no unit.

Ask: Query solubility (mole fraction) for CCn1c2ccccc2c2cc(-n3nncc3-c3ccccc3)ccc21
Reply: 2.61e-06

----------
conditions: in water, 288.15 K
measurement label: solubility (mole fraction)
Keep it simple and answer with nothing but the number.

Ask: Look up solubility (mole fraction) of CCn1c2ccccc2c2cc(-n3nncc3-c3ccccc3)ccc21 and report it.
Reply: 1.08e-06

----------
settings: in acetonitrile, 323.15 K
measurement label: solubility (mole fraction)
API note: the answer field is a bare number with no unit suffix.

Ask: Give the value of solubility (mole fraction) reported for the following: CCn1c2ccccc2c2cc(-n3nncc3-c3ccccc3)ccc21
Reply: 0.011

----------
settings: in ethanol, 308.15 K
measurement label: solubility (mole fraction)
API note: the answer field is a bare number with no unit suffix.

Ask: Tell me measured solubility (mole fraction) for CCn1c2ccccc2c2cc(-n3nncc3-c3ccccc3)ccc21 please.
Reply: 0.00151

----------
settings: in acetonitrile, 288.15 K
measurement label: solubility (mole fraction)
In your answer, state the number alone without any accompanying words.

Ask: Look up and report measured solubility (mole fraction) for this entry: CCn1c2ccccc2c2cc(-n3nncc3-c3ccccc3)ccc21
Reply: 0.00272

----------
settings: in ethanol, 288.15 K
measurement label: solubility (mole fraction)
Give the figure by itself; no unit, no explanation.

Ask: Find the measured solubility (mole fraction) of CCn1c2ccccc2c2cc(-n3nncc3-c3ccccc3)ccc21 and report it.
Reply: 0.000674

----------
details: in water, 278.15 K
measurement label: solubility (mole fraction)
Output spec: single numeric token, no unit.

Ask: Given the compound CCn1c2ccccc2c2cc(-n3nncc3-c3ccccc3)ccc21 , write its reported solubility (mole fraction).
Reply: 5.79e-07

----------
settings: in ethanol, 278.15 K
measurement label: solubility (mole fraction)
Give the figure by itself; no unit, no explanation.

Ask: Answer with the recorded solubility (mole fraction) for the molecule listed here: CCn1c2ccccc2c2cc(-n3nncc3-c3ccccc3)ccc21
Reply: 0.000446

----------
conditions: in acetonitrile, 278.15 K
measurement label: solubility (mole fraction)
// no unit, no text: just the number

Ask: Consider the molecule CCn1c2ccccc2c2cc(-n3nncc3-c3ccccc3)ccc21 . State its measured solubility (mole fraction).
Reply: 0.00173

----------
conditions: in ethanol, 303.15 K
measurement label: solubility (mole fraction)
Write the number on its own, no unit after it.

Ask: Determine from records and report solubility (mole fraction) for CCn1c2ccccc2c2cc(-n3nncc3-c3ccccc3)ccc21
Reply: 0.00124

----------
details: in n-propanol, 323.15 K
measurement label: solubility (mole fraction)

Ask: Please report the measured solubility (mole fraction) for CCn1c2ccccc2c2cc(-n3nncc3-c3ccccc3)ccc21
Reply: 0.00357

----------
conditions: in acetonitrile, 303.15 K
measurement label: solubility (mole fraction)

Ask: Please look at this molecule and report its solubility (mole fraction): CCn1c2ccccc2c2cc(-n3nncc3-c3ccccc3)ccc21
Reply: 0.00505

----------
conditions: in isopropanol, 278.15 K
measurement label: solubility (mole fraction)
A bare number is all that is needed in reply.

Ask: Input CCn1c2ccccc2c2cc(-n3nncc3-c3ccccc3)ccc21 , output reported solubility (mole fraction).
Reply: 0.000211
